tested on: NLRP3 (IL-1β secretion from THP-1 cells); assay: IL-1β secretion assay in 384-well plates, PMA differentiated THP-1 cells, LPS and nigericin stimulation; format: cell-based; conditions: Homo sapiens; THP-1 cells, PMA 5 ng/mL, LPS 25 ng/mL, nigericin, IL-1β ELISA, 384-well; read-out: Activity
result type: pIC50
# pIC50: negative log10 of molar concentration; output just the value

The cases that follow already have their pIC50 on record.
In [3]: df
Out[3]:
                         chemical_structure  measurement
0  CC(C)c1nn(CC(=O)N[C@H]2C[C@@](C)(O)C2)c(=O)cc1-c1cccc(C2CC2)c1         5.72
1  Cc1c(-c2cccc(F)c2)c(C(C)C)nn(CC(=O)Nc2ncncc2F)c1=O         6.00
2  CC(C)c1nn(CC(=O)N[C@@H]2CCCN(C3CC3)C2)c(=O)cc1-c1cccc(F)c1         6.31
3  CC(C)c1nn(CC(=O)N[C@H]2C[C@@](C)(O)C2)c(=O)cc1-c1cccc(F)c1F         5.74

The compound listed as CC(C)c1nn(CC(=O)N[C@H]2C[C@@](C)(O)C2)c(=O)cc1-c1cc(Cl)ccc1Cl shows pIC50 equal to 5.94

The compound listed as CC(C)c1nn(CC(=O)Nc2ncccc2F)c(=O)cc1-c1cccc(F)c1 shows pIC50 equal to 5.14

The compound listed as COc1cccc(-c2cc(=O)n(CC(=O)N[C@H]3C[C@@](C)(O)C3)nc2C(C)C)c1 shows pIC50 equal to 5.15

The compound listed as CCN1CCC[C@@H](NC(=O)Cn2nc(C(C)C)c(-c3cccc4ccccc34)cc2=O)C1 shows pIC50 equal to 6.06

###

Listed below: pIC50 values for each entry.
system: NLRP3 (IL-1β secretion from THP-1 cells); assay: IL-1β secretion assay in 384-well plates, PMA differentiated THP-1 cells, LPS and nigericin stimulation; type: cell-based; conditions: Homo sapiens; THP-1 cells, PMA 5 ng/mL, LPS 25 ng/mL, nigericin, IL-1β ELISA, 384-well; read-out: Activity
# pIC50: negative log10 of molar concentration; output just the value

The compound listed as CC(C)c1nn(CC(=O)N[C@H]2C[C@@](C)(O)C2)c(=O)cc1-c1cccc(Cl)c1 shows pIC50 equal to 5.83

###

Listed below: IC50 values for each entry.
tested on: NLRP3 (IL-1β secretion from THP-1 cells); test: IL-1β secretion assay in 384-well plates, PMA differentiated THP-1 cells, LPS and nigericin stimulation; assay type: cell-based; settings: Homo sapiens; THP-1 cells, PMA 5 ng/mL, LPS 25 ng/mL, nigericin, IL-1β ELISA, 384-well; read-out: Activity
State the answer as a number, implicitly in µM.

The compound listed as CC(C)c1nn(CC(=O)N[C@H]2C[C@@](C)(O)C2)c(=O)cc1-c1cccc(C#N)c1 [Example 8] shows IC50 equal to 24.5

The compound listed as CC(C)c1nn(CC(=O)Nc2ncncc2F)c(=O)c(C(F)F)c1-c1cccc(F)c1 [Example 37] shows IC50 equal to 30.1

###

Listed below: IC50 values for each entry.
system: NLRP3 (IL-1β secretion from THP-1 cells); assay: IL-1β secretion assay in 384-well plates, PMA differentiated THP-1 cells, LPS and nigericin stimulation; assay type: cell-based; settings: Homo sapiens; THP-1 cells, PMA 5 ng/mL, LPS 25 ng/mL, nigericin, IL-1β ELISA, 384-well; read-out: Activity
State the answer as a number, implicitly in µM.

The cases that follow already have their IC50 on record.
>>> print(df.to_string())
                         chemical_structure  measurement_unit  measurement
0  CCN1CCC[C@@H](NC(=O)Cn2nc(C(C)C)c(-c3cccc(C4CCC4)c3)cc2=O)C1                µM         6.98
1  CC(C)c1nn(CC(=O)N[C@H]2C[C@@](C)(O)C2)c(=O)cc1-c1ccccc1                µM         3.32
2  CC(C)c1nn(CC(=O)Nc2ncc(F)cn2)c(=O)cc1-c1cncc(F)c1                µM         6.98

The compound listed as CC(C)c1nn(CC(=O)N[C@H]2C[C@@](C)(O)C2)c(=O)cc1-c1cccc(Cl)c1Cl shows IC50 equal to 3.51

The compound listed as CC(C)c1nn(CC(=O)N[C@H]2C[C@@](C)(O)C2)c(=O)nc1-c1ccccc1 shows IC50 equal to 24

The compound listed as O=C(Cn1nc(CC(F)(F)F)c(-c2cc(F)cc(F)c2)cc1=O)Nc1ncncc1F shows IC50 equal to 1.64

The compound listed as CC(C)c1nn(C2(C(=O)Nc3ncccn3)CC2)c(=O)cc1-c1cc(F)cc(F)c1 shows IC50 equal to 1.14

The compound listed as CCc1nn(CC(=O)Nc2ncncc2F)c(=O)c(C)c1-c1cccc(F)c1 shows IC50 equal to 4.36

###

test system: NLRP3 (IL-1β secretion from THP-1 cells); experiment: IL-1β secretion assay in 384-well plates, PMA differentiated THP-1 cells, LPS and nigericin stimulation; assay type: cell-based; conditions: Homo sapiens; THP-1 cells, PMA 5 ng/mL, LPS 25 ng/mL, nigericin, IL-1β ELISA, 384-well; read-out: Activity
result type: IC50 (µM)
State the answer as a number, implicitly in µM.

>>> df
                                   molecule  result_type  measurement_unit  measurement
0  CC(C)c1nn(CC(=O)N[C@H]2C[C@@](C)(O)C2)c(=O)cc1-c1cc(F)ccc1F         IC50                µM          1.9

The molecule listed as C[C@]1(O)C[C@@H](NC(=O)Cn2nc(Cl)c(-c3ccccc3)cc2=O)C1 shows IC50 equal to 50

The molecule listed as O=C(Cn1nc(C2CC2(F)F)c(-c2cc(F)cc(F)c2)cc1=O)Nc1ncncc1F (stereo not shown) shows IC50 equal to 3.24

The molecule listed as COc1nn(CC(=O)N[C@H]2C[C@@](C)(O)C2)c(=O)cc1-c1ccccc1 shows IC50 equal to 21.7

###

tested on: NLRP3 (IL-1β secretion from THP-1 cells); test: IL-1β secretion assay in 384-well plates, PMA differentiated THP-1 cells, LPS and nigericin stimulation; format: cell-based; settings: Homo sapiens; THP-1 cells, PMA 5 ng/mL, LPS 25 ng/mL, nigericin, IL-1β ELISA, 384-well; read-out: Activity
Listed below: IC50 values for each entry.
State the answer as a number, implicitly in µM.

>>> print(df.to_string())
                                   molecule  measurement_unit  measurement
0  CC(C)c1nn(CC(=O)Nc2ncc(F)cc2F)c(=O)cc1-c1cc(F)cc(F)c1                µM        0.596

Next molecule, IC50 to be filled in.
The molecule listed as CC(C)c1nn(CC(=O)Nc2ncncc2F)c(=O)cc1-c1cccc(Cl)c1 shows IC50 equal to 0.535

###

test system: NLRP3 (IL-1β secretion from THP-1 cells); experiment: IL-1β secretion assay in 384-well plates, PMA differentiated THP-1 cells, LPS and nigericin stimulation; assay type: cell-based; settings: Homo sapiens; THP-1 cells, PMA 5 ng/mL, LPS 25 ng/mL, nigericin, IL-1β ELISA, 384-well; read-out: Activity
# label = 1.0 if IC50 < 2 µM else 0.0

// known answers, use as guide
>>> print(df.to_string())
                                   compound  discrete_label
0  CCc1c(-c2cccc(F)c2)c(C(C)C)nn(CC(=O)Nc2ncncc2F)c1=O             0.0
1  Cc1c(-c2cc(F)cc(F)c2)c(C(C)C)nn(CC(=O)Nc2ncncc2F)c1=O             1.0
2  CC(C)c1nn(CC(=O)N[C@H]2C[C@@](C)(O)C2)c(=O)cc1-c1ccccn1             0.0
3  CC(C)c1nn(CC(=O)N[C@H]2C[C@@](C)(O)C2)c(=O)cc1-c1cc(F)cc(F)c1             1.0

Say whether its IC50 is strictly beneath 2 µM. Entry: Cc1cccc(-c2cc(=O)n(CC(=O)N[C@H]3C[C@@](C)(O)C3)nc2C(C)C)c1F
1.0

Say whether its IC50 is strictly beneath 2 µM. Entry: CC(C)c1nn(CC(=O)N[C@H]2C[C@@](C)(O)C2)c(=O)cc1-c1ccccc1Cl
0.0

Say whether its IC50 is strictly beneath 2 µM. Entry: CC(C)c1nn(CC(=O)Nc2ncncc2F)c(=O)cc1-c1cc(F)cc(C2CC2(F)F)c1 (stereo not shown)
0.0
